Source of measurements: paper PMC5138282

Test system: 5-enolpyruvylshikimate-3-phosphate synthase (EPSPS), P. hysterophorus accessions from Dominican Republic
Settings: read-out: I50 (μM)^a; accession Do-R1; natural mutant, native extract, other EPSPS alleles/copies not excluded; buffer as for Cu-S; stated gain
Measurement kind: IC50 (µM)
// note: answer is a bare numeric in µM

For the molecule O=C(O)CNCP(=O)(O)O [glyphosate, (N-phosphonomethyl)-glycine] , report IC50.
468
